Reference source for all entries: patent US20150031601A1

target: serum proteins; test: 90% serum, 30 kDa ultrafiltration, HPLC
MEASURED_ATTRIBUTE: Protein binding (%)
Please state the number and follow it with the unit.

Please look up its Protein binding (%): GFCWNWCVYRNGVRVCHRRCN [SEQ ID NO: 267] 85%

Please look up its Protein binding (%): GFCAKVCVYRNGVRSCYRRCN [SEQ ID NO: 120] 69%

Please look up its Protein binding (%): GFCWNFCVYRNGVRVCHRRCN [SEQ ID NO: 260] 84%

Please look up its Protein binding (%): GFCWYVCVYRNGVRVCNRRCN [SEQ ID NO: 48] 68%

Please look up its Protein binding (%): GFCWNVCVYRNGVRVCHRRCG [SEQ ID NO: 281] 66%

Please look up its Protein binding (%): GFCGHVCVYRNGVRVCYRRCS [SEQ ID NO: 144] 68%

Please look up its Protein binding (%): GFCGRVCVYRNGVRRCYRRCN [SEQ ID NO: 170] 87%

Please look up its Protein binding (%): GFCWRVCVYRNGVRVCHRRCN [SEQ ID NO: 76] 92%

Please look up its Protein binding (%): GFCGRVCVYRNGVRVCYRRCN [SEQ ID NO: 61] 72%

Please look up its Protein binding (%): GFCWYVCVYRNGVRQCYRRCN [SEQ ID NO: 42] 96%

Please look up its Protein binding (%): GFCWNVCVYRNRVRVCHRRCN [SEQ ID NO: 228] 86%

Please look up its Protein binding (%): GFCWRVCVYSNGKRSCHRRCN [SEQ ID NO: 509] 87%

Please look up its Protein binding (%): GFCWYVCVYRNGVRGCYRRCN [SEQ ID NO: 38] 93%

Please look up its Protein binding (%): GFCFRVCVKRNGVRKCYRRCN [SEQ ID NO: 381] 98%

Please look up its Protein binding (%): GFCGHVCVYRNGVRVCYRRCN [SEQ ID NO: 60] 64%

Please look up its Protein binding (%): GFCWYVCVYRNGVRNCYRRCN [SEQ ID NO: 41] 97%

Please look up its Protein binding (%): GFCWYVCVYKNGVRVCHRRCN [SEQ ID NO: 89] 90%

Please look up its Protein binding (%): GFCWNVCVRRNGVRVCHRRCN [SEQ ID NO: 308] 94%

Please look up its Protein binding (%): GFCWYVCVRRNGVRVCYRRCN [SEQ ID NO: 28] 92%

Please look up its Protein binding (%): GFCWYVCARRNGLRSCYRRCN [SEQ ID NO: 453] 92%

Please look up its Protein binding (%): GFCWYVCVYRNGVRVCKRRCN [SEQ ID NO: 47] 89%
